Data provenance: ChEMBL document CHEMBL3774372

# EXPERIMENTAL_PROTOCOL: Ratio of drug level in brain to plasma in CD1 mouse at 1 mg/kg, iv administered as single dose measured after 30 mins by LC/ESI-MS/MS analysis
# Type: ADME, organism-based
# MEASUREMENT_CONDITIONS: brain and plasma, read-out: BPR
MEASURE_NAME: Kp at 0.5 h
Give a plain numeric answer without units written out.

Request: Can you look up the measured Kp at 0.5 h of `Cc1cccc(C)c1OCCOCCN[C@H](C)CO.Cl` for me?
Result: 5.41

* * *

# Test system: Mus musculus
# EXPERIMENTAL_PROTOCOL: AUC (0 to infinity) in CD1 mouse plasma at 1 mg/kg, iv measured up to 240 mins by LC/ESI-MS/MS analysis
# Assay type: ADME, organism-based
# Set-up: dose 1 mg/kg, time infinity, route intravenous
# MEASUREMENT_CONDITIONS: in vivo, 4 h
MEASURE_NAME: AUC (ng·h/mL)
The answer is to be given in ng·h/mL; state only the numeric part.

Request: Can you look up the measured AUC of `Cc1cccc(C)c1OCCOCCN[C@H](C)CO.Cl` for me?
Result: 1030

* * *

# EXPERIMENTAL_PROTOCOL: Ratio of drug level in brain to plasma in CD1 mouse at 1 mg/kg, iv administered as single dose measured after 60 mins by LC/ESI-MS/MS analysis
# Assay type: ADME, organism-based
# MEASUREMENT_CONDITIONS: brain and plasma, read-out: BPR
MEASURE_NAME: Kp at 1 h
Give a plain numeric answer without units written out.

Request: Can you look up the measured Kp at 1 h of `Cc1cccc(C)c1OCCOCCN[C@H](C)CO.Cl` for me?
Result: 3.58

* * *

# EXPERIMENTAL_PROTOCOL: Ratio of drug level in brain to plasma in CD1 mouse at 1 mg/kg, iv administered as single dose measured after 240 mins by LC/ESI-MS/MS analysis
# Format: ADME, organism-based
# MEASUREMENT_CONDITIONS: brain and plasma, read-out: BPR
MEASURE_NAME: Kp at 4 h
Give a plain numeric answer without units written out.

Request: Can you look up the measured Kp at 4 h of `Cc1cccc(C)c1OCCOCCN[C@H](C)CO.Cl` for me?
Result: 2.98

* * *

# Test system: Mus musculus
# EXPERIMENTAL_PROTOCOL: AUMC (0 to infinity) in CD1 mouse plasma at 12.92 mg/kg, ig measured up to 240 mins by LC/ESI-MS/MS analysis
# Type: ADME, organism-based
# MEASUREMENT_CONDITIONS: in vivo, po, 4 h
MEASURE_NAME: AUMC (ng·h²/mL)
The answer is to be given in ng·h²/mL; state only the numeric part.

Request: # query: AUMC | item `Cc1cccc(C)c1OCCOCCN[C@H](C)CO.Cl` | system: Mus musculus
Result: 266

* * *

# TARGET_UNDER_TEST: hERG (KCNH2) (Homo sapiens)
# Sequence (Q12809 whole entry): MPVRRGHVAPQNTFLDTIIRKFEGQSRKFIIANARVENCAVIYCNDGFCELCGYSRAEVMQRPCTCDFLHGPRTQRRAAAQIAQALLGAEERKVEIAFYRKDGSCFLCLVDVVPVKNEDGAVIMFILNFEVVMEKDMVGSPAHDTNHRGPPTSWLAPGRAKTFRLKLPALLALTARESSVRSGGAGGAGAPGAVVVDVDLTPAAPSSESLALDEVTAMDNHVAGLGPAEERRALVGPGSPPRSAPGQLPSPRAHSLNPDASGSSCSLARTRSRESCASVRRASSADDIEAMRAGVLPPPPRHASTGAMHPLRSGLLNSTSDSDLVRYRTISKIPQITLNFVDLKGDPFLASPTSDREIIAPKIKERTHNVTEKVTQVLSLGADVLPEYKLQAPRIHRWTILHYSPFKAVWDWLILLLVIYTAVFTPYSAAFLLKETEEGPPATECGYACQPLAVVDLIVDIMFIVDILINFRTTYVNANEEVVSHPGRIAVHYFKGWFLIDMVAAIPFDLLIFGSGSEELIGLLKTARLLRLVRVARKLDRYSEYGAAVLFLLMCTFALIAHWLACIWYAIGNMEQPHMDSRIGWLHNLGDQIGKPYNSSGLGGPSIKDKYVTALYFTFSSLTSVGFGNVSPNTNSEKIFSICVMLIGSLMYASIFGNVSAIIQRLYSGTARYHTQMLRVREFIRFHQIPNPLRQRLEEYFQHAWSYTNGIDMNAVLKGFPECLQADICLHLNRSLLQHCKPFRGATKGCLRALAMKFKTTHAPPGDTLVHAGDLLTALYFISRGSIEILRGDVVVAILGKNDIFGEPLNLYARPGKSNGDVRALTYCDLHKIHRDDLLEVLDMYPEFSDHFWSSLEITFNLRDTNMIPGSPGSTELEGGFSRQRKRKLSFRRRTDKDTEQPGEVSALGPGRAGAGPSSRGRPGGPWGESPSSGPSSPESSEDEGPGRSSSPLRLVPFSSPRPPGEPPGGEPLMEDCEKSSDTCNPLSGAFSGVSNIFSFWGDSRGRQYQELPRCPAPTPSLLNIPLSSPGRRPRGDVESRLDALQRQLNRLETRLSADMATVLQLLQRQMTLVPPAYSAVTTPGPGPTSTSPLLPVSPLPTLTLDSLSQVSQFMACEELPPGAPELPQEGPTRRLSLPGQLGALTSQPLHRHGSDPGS
# EXPERIMENTAL_PROTOCOL: Displacement of [3H]astemizole from human recombinant ERG expressed in HEK293 cells at 10^-4 M
# Type: cell-based
# MEASUREMENT_CONDITIONS: HEK293 cells that express human recombinant ERG, probe [3H]astemizole
MEASURE_NAME: inhibition at 100 µM
Please give the number followed by its unit.

Request: Can you look up the measured inhibition at 100 µM of `Cc1cccc(C)c1OCCOCCN[C@H](C)CO.Cl` for me?
Result: 3.6%

* * *

# Tested on: Mus musculus
# EXPERIMENTAL_PROTOCOL: Neurotoxicity in mouse at 100 mg/kg, ip after 1 hr by rotarod test
# Assay type: toxicity, organism-based
# MEASUREMENT_CONDITIONS: in vivo
MEASURE_NAME: Activity

molecule="Cc1cccc(OCCN[C@@H]2CCCC[C@H]2O)c1C (racemic)" result=Toxic
molecule="Cc1cccc(OCCCN2CCCC(O)C2)c1C (centres undefined)" result=Non-toxic
molecule="Cc1cccc(OCCCNCC(O)c2ccccc2)c1C (centres undefined)" result=Toxic
molecule=Cc1cccc(OCCCN2CCC(O)CC2)c1C result=Non-toxic

* * *

# EXPERIMENTAL_PROTOCOL: Tmax in CD1 mouse brain at 1 mg/kg, iv measured up to 240 mins by LC/ESI-MS/MS analysis
# Format: ADME, organism-based
MEASURE_NAME: Tmax

Request: Can you look up the measured Tmax of `Cc1cccc(C)c1OCCOCCN[C@H](C)CO.Cl` for me?
Result: 5 min

* * *

# EXPERIMENTAL_PROTOCOL: Displacement of [35S]dATPalpha S from rat cerebral cortex P2Y receptor
# Assay type: tissue-based
MEASURE_NAME: pIC50
Value format note: pIC50 is -log10 of concentration (mol/L); just state the number.

Request: Can you look up the measured pIC50 of Nc1ncnc2c1ncn2[C@@H]1O[C@H](COP(O)(=S)OP(=O)(O)OP(=O)(O)O)[C@@H](O)[C@H]1O (stereo partly specified) for me?
Result: 7.54

* * *

# EXPERIMENTAL_PROTOCOL: MRT in CD1 mouse brain at 12.92 mg/kg, ip measured up to 240 mins by LC/ESI-MS/MS analysis
# Assay type: ADME, organism-based
MEASURE_NAME: MRT (h)
The answer is to be given in h; state only the numeric part.

Request: Can you look up the measured MRT of `Cc1cccc(C)c1OCCOCCN[C@H](C)CO.Cl` for me?
Result: 1.38

* * *

# System: Rattus norvegicus
# EXPERIMENTAL_PROTOCOL: Neurotoxicity in rat at 30 mg/kg, ip after 0.5 hrs by rotarod test
# Type: toxicity, organism-based
# MEASUREMENT_CONDITIONS: in vivo
MEASURE_NAME: Activity

molecule=Cc1cccc(OCCCN2CCC(O)CC2)c1C measure_name=Activity result=Non-toxic
molecule="Cc1cccc(OCCCN2CCCC(O)C2)c1C (centres undefined)" measure_name=Activity result=Non-toxic
molecule=Cc1cccc(C)c1OCCOCCN[C@@H](C)CO measure_name=Activity result=Non-toxic
molecule=Cc1cccc(C)c1OCCOCCN[C@@H](C)CO.Cl measure_name=Activity result=Non-toxic

* * *

# System: Mus musculus
# EXPERIMENTAL_PROTOCOL: Neurotoxicity in mouse at 100 mg/kg, ip after 2 hrs by rotarod test
# Assay type: toxicity, organism-based
# MEASUREMENT_CONDITIONS: in vivo
MEASURE_NAME: Activity

compound=Cc1cccc(OCCN2CCC(O)CC2)c1C result=Non-toxic
compound="Cc1cccc(OCCCN2CCCC(O)C2)c1C (centres undefined)" result=Non-toxic
compound="Cc1ccc(OCCNC(C)CO)c(C)c1 (centres undefined)" result=Non-toxic
compound=Cc1cccc(OCCCN2CCC(O)CC2)c1C result=Non-toxic

* * *

Entries annotated with measured inhibition (INH)
# Tested on: Vibrio harveyi
# EXPERIMENTAL_PROTOCOL: Antimutagenic activity against Vibrio harveyi BB7 assessed as inhibition of NQNO-induced mutagenicity after 48 hrs
# Assay type: functional
Please give the number followed by its unit.

Known results for compounds:
compound=CC[C@H](CO)NCCOCCOc1c(C)cccc1C measure_name="inhibition (INH)" result=81%
compound="Cc1cccc(C)c1OCCOCCNC(C)CO (centres undefined)" measure_name="inhibition (INH)" result=70%
compound=Cc1cccc(C)c1OCCOCCN[C@H](C)CO.Cl measure_name="inhibition (INH)" result=75%

Request: Can you look up the measured inhibition (INH) of `Cc1cccc(C)c1OCCOCCN[C@@H](C)CO` for me?
Result: 70%

Request: Subsequent entry: Cc1cc(C)c(OCCOCCNC(C)CO)c(C)c1 (centres undefined)
Result: 81%

Request: Subsequent entry: Cc1cc(C)c(OCCOCCN[C@@H]2CCCC[C@H]2O)c(C)c1 (racemic)
Result: 62%

Request: Subsequent entry: Cc1cccc(C)c1OCCOCCN[C@@H]1CCCC[C@H]1O (racemic)
Result: 82%

Request: Subsequent entry: `Cc1cccc(C)c1OCCOCCN1CCC(O)CC1`
Result: 84%

Request: Subsequent entry: `CC[C@@H](CO)NCCOCCOc1c(C)cccc1C`
Result: 88%

* * *

Entries annotated with measured Activity
# Tested on: Vibrio harveyi
# EXPERIMENTAL_PROTOCOL: Mutagenicity in Vibrio harveyi BB7XM assessed as number of colonies after 48 hrs (reference value: 14 no_unit)
# Assay type: ADME, organism-based
# MEASUREMENT_CONDITIONS: in vivo
Give a plain numeric answer without units written out.

Request: Can you look up the measured Activity of Cc1cccc(C)c1OCCOCCNC(C)CO (stereo unspecified) for me?
Result: 19

Request: Subsequent entry: `Cc1cccc(OCCOCCN[C@H]2CC[C@H](O)CC2)c1C`
Result: 20

Request: Subsequent entry: `Cc1cccc(C)c1OCCOCCN1CCC(O)CC1`
Result: 26

Request: Subsequent entry: `Cc1ccc(OCCN[C@H](C)CO)c(C)c1`
Result: 23

Request: Subsequent entry: `CC[C@H](CO)NCCOCCOc1c(C)cccc1C`
Result: 27

Request: Subsequent entry: Cc1cc(C)c(OCCOCCN[C@@H]2CCCC[C@H]2O)c(C)c1 (racemic)
Result: 26
